Tested on: SMMC-7721
Assay: Cytotoxicity against human SMMC7721 cells after 24 hrs by MTT assay
Format: functional, cell-based
Settings: SMMC-7721, 24 h
value.kind: IC50 (µM)

O=C(Nc1ccc(Cl)cc1)Nc1ccc(Oc2ncnc3cc(F)ccc23)cc1 : 10.6
